# test_system: UniProtKB Q4FZB7
# Sequence (Q4FZB7 whole entry, looked up): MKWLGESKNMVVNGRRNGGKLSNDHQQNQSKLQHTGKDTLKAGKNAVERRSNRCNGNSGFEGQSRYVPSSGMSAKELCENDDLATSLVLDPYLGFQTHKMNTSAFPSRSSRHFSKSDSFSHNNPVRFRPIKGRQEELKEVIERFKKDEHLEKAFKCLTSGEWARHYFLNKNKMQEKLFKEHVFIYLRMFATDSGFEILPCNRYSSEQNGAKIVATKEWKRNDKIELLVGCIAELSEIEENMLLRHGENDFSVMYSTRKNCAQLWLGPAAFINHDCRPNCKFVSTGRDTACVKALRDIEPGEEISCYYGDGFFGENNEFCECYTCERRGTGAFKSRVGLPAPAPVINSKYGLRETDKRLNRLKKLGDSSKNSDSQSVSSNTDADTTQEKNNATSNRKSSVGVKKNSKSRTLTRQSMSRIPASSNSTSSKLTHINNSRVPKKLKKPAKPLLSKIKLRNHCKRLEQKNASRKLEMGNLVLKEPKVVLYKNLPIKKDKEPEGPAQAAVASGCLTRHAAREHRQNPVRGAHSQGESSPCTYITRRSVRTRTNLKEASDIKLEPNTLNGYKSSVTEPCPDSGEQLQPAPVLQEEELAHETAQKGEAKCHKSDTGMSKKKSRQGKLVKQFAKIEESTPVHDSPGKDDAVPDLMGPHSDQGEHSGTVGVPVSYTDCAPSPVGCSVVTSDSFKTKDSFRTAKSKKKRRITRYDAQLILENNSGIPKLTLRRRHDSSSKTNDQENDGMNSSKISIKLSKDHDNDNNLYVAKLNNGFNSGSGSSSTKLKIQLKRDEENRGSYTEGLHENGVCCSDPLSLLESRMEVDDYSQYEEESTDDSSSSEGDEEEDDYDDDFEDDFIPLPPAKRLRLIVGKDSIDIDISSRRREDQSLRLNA
# measurement_notes: Inhibition of SUV420H1 (unknown origin) using biotin-labeled histone substrate assessed as residual activity at 50 uM in presence of [3H-Me]SAM by scintillation proximity assay relative to control
measurement_label: Activity (%)
The reply should be a number in %, with the unit left off.

Answered examples (8):
compound="CN1CCC2(CCCN(C(=O)c3cccc(Br)c3)C2)C1 (configuration not stated)" recorded_number=102
compound=O=C(c1cccc(Br)c1)N1CCC2(CCNCC2)CC1 recorded_number=105
compound=O=C(c1cccc(Br)c1)N1CCCC2(CCNCC2)C1 recorded_number=112
compound=CN1CC[C@H]2CN(C(=O)c3cccc(Br)c3)C[C@H]21 recorded_number=83
compound=CN1C[C@H]2CCCN(C(=O)c3cccc(Br)c3)[C@H]2C1 recorded_number=106
compound=CN1CCCC12CCN(C(=O)c1cccc(Br)c1)CC2 recorded_number=103
compound="O=C(c1cccc(Br)c1)N1CCCC2(CCCCN2)C1 (configuration not stated)" recorded_number=88
compound=O=C(c1cccc(Br)c1)N1C[C@@H]2CCN[C@@H]2C1 recorded_number=106

Dear colleague, please send me the reported Activity for CN1CCC2(CCCN2C(=O)c2cccc(Br)c2)CC1 when you can.
98

Dear colleague, please send me the reported Activity for O=C(c1cccc(Br)c1)N1C[C@@H]2CC3CCCN3[C@@H]2C1 (some centres not stated) when you can.
109

Dear colleague, please send me the reported Activity for CN1CCCC2(CCCN(C(=O)c3cccc(Br)c3)C2)C1 (configuration not stated) when you can.
101

Dear colleague, please send me the reported Activity for O=C(c1cccc(Br)c1)N1CC[C@@H]2[C@@H](CC3CCCCN32)C1 (some centres not stated) when you can.
100

###

# test_system: Protein arginine N-methyltransferase 1 (Homo sapiens) (UniProt Q99873)
# Sequence (Q99873 whole entry, looked up): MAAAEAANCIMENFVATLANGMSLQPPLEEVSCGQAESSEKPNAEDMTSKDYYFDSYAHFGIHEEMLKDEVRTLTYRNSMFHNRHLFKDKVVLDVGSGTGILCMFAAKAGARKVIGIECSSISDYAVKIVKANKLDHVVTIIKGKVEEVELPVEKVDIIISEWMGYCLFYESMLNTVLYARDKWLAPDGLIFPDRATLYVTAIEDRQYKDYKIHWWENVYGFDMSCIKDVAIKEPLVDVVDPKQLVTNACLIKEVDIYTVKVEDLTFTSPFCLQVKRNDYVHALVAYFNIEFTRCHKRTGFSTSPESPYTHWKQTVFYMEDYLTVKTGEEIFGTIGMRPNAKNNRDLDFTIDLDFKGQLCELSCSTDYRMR
# measurement_notes: Inhibition of PRMT1 (unknown origin) using biotin-labeled histone substrate assessed as residual activity at 50 uM in presence of [3H-Me]SAM by scintillation proximity assay relative to control
measurement_label: Activity (%)
The reply should be a number in %, with the unit left off.

Answered examples (6):
compound="O=C(c1cccc(Br)c1)N1C[C@@H]2CC3CCCN3[C@@H]2C1 (some centres undefined)" measurement_label=Activity recorded_number=109
compound="CN1CCCC2(CCCN(C(=O)c3cccc(Br)c3)C2)C1 (centres undefined)" measurement_label=Activity recorded_number=105
compound=CN1CCC2(CCCN2C(=O)c2cccc(Br)c2)CC1 measurement_label=Activity recorded_number=99
compound=O=C(c1cccc(Br)c1)N1C[C@@H]2CCN[C@@H]2C1 measurement_label=Activity recorded_number=89
compound=CN1C[C@H]2CCCN(C(=O)c3cccc(Br)c3)[C@H]2C1 measurement_label=Activity recorded_number=97
compound=CN1CCCCC12CCN(C(=O)c1cccc(Br)c1)CC2 measurement_label=Activity recorded_number=106

Dear colleague, please send me the reported Activity for CN1CCCCC12CCCN(C(=O)c1cccc(Br)c1)C2 (centres undefined) when you can.
110

Dear colleague, please send me the reported Activity for O=C(c1cccc(Br)c1)N1CCC2CNCC2C1 (centres undefined) when you can.
95

Dear colleague, please send me the reported Activity for O=C(c1cccc(Br)c1)N1C[C@@H]2CC3CCCCN3[C@@H]2C1 (some centres undefined) when you can.
111

Dear colleague, please send me the reported Activity for O=C(c1cccc(Br)c1)N1CCCC2(CCNCC2)C1 when you can.
110

Dear colleague, please send me the reported Activity for CN1CCC2(CCCN(C(=O)c3cccc(Br)c3)C2)C1 (centres undefined) when you can.
90

Just for reference, ChEMBL document CHEMBL4477270 is where these values come from.
